Molecular target: IRAK4 (Homo sapiens (Human), UniProt Q9NWZ3)
Sequence (Q9NWZ3 whole entry): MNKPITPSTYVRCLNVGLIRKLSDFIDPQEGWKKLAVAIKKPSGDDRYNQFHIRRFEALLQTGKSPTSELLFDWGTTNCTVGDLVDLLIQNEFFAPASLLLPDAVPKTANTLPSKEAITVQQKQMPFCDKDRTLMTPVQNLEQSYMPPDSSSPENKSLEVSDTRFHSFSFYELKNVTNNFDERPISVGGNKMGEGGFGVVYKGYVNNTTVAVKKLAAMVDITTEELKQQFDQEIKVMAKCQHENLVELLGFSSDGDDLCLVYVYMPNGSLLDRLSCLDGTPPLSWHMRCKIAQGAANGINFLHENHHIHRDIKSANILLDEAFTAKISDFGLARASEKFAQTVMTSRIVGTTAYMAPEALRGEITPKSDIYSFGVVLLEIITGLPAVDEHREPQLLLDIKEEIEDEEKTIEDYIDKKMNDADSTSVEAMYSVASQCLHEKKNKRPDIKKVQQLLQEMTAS
Test: IRAK4 MSD degradation in OCI-LY10
Type: cell-based
Details: OCI-LY10, 24 hrs; read-out: IRAK4 MSD degradation in OCI-LY10 at 24 hrs: DC50
Experimental: Degradation of IRAK4 in OCI-LY10 was quantitatively measured using Meso Scale Discovery technology. […] Compounds were then added to the assay plates with a final top concentration of 1 to 10 μM in a 1:3 dilution series with total of 8 doses. […] The assay plates were then incubated at room temperature for 1 hour, washed 3 times with 150 μL/well TB ST buffer, and 150 μL/well MSD reading buffer (Meso Scale Discovery catalog number R92TC-2) was added. […]
REPORTED ENDPOINT: DC50

For IRAK4 (Homo sapiens (Human), UniProt Q9NWZ3), give the measured DC50 of the entry CN(C[C@H]1CC[C@H](n2cc(NC(=O)c3cnn4ccc(N5C[C@H]6C[C@@H]5CO6)nc34)c(C(F)F)n2)CC1)[C@H]1CC[C@H](Nc2cccc3c2C(=O)N(C2CCC(=O)NC2=O)C3=O)CC1 (stereo partly shown) [I-463] < 10 nM

Report value: DC50, system: IRAK4 (Homo sapiens (Human), UniProt Q9NWZ3), molecule: CN(C[C@H]1CC[C@H](C2N=C(NC(=O)c3cnn4ccc(N5CCOCC5)nc34)C(C(F)F)=N2)CC1)C1CCC(CNc2cccc3c2C(=O)N(C2CCC(=O)NC2=O)C3=O)CC1 (stereo partly shown) [I-459] 10 to 100 nM

Identify measured DC50 obtained with IRAK4 (Homo sapiens (Human), UniProt Q9NWZ3) for O=C1CCC(N2C(=O)c3cccc(NCCOCCCN4CCN(c5ncc(-n6cc(NC(=O)c7cnn8ccc(N9C[C@H]%10C[C@@H]9CO%10)nc78)c(C(F)F)n6)cn5)CC4)c3C2=O)C(=O)N1 (stereo partly shown) [I-474] . 10 to 100 nM

For IRAK4 (Homo sapiens (Human), UniProt Q9NWZ3), give the measured DC50 of the entry O=C1CCC(N2C(=O)c3cccc(NCCCOC4CCN(C[C@H]5OC[C@H](n6cc(NC(=O)c7cnn8ccc(N9CCOCC9)nc78)c(C(F)F)n6)CO5)CC4)c3C2=O)C(=O)N1 (stereo partly shown) [I-451] 10 to 100 nM

---

Target: IRAK4 (Homo sapiens (Human), UniProt Q9NWZ3)
Assay: IRAK4 MSD degradation in OCI-LY10
Format: cell-based
Conditions: OCI-LY10, 4 hrs, MSD; read-out: IRAK4 MSD degradation in OCI-LY10 at 4 hrs: Average external-Abs DC50
Procedure: Degradation of IRAK4 in OCI-LY10 was quantitatively measured using Meso Scale Discovery technology. […] Compounds were then added to the assay plates with a final top concentration of 1 to 10 μM in a 1:3 dilution series with total of 8 doses. […] The assay plates were then incubated at room temperature for 1 hour, washed 3 times with 150 μL/well TB ST buffer, and 150 μL/well MSD reading buffer (Meso Scale Discovery catalog number R92TC-2) was added. […]
Please go through the items and note down their DC50.

Note DC50 for the molecule shown: Cn1c(=O)n(C2CCC(=O)NC2=O)c2ccc(CN3CCC(CCO[C@H]4C[C@H](N(C)C[C@H]5CC[C@H](n6cc(NC(=O)c7coc(-c8ccnc(NCC9CC9)c8)n7)c(C(F)F)n6)CC5)C4)CC3)cc21 (stereo partly drawn) [I-238] 10 to 100 nM

Name the recorded DC50 of the molecule listed here: Cn1c(=O)n(C2CCC(=O)NC2=O)c2ccc(CN3CCC(CCC(=O)N4CCC(n5cc(NC(=O)c6coc(-c7ccnc(NCC8CC8)c7)n6)c(C(F)F)n5)CC4)CC3)cc21 (stereo not drawn) [I-255] 10 to 100 nM

Please report the measured DC50 for CN1C(=O)CCC(n2c(=O)n(C)c3c(CCCOC4CCN(C[C@H]5CC[C@H](n6cc(NC(=O)c7cnn8ccc(N9CCOCC9)nc78)c(C(F)F)n6)CC5)CC4)cccc32)C1=O (stereo partly drawn) [I-195] 100 to 1000 nM

---

Biological target: IRAK4 (Homo sapiens (Human), UniProt Q9NWZ3)
Experiment: IRAK4 MSD degradation in OCI-LY10
Format: cell-based
Settings: OCI-LY10, 24 hrs, MSD; read-out: IRAK4 MSD degradation in OCI-LY10 at 24 hrs: Average external-Abs DC50
For each of the compounds below, state its DC50.

Look up and report DC50, with IRAK4 (Homo sapiens (Human), UniProt Q9NWZ3) as system, for CN1C(=O)CCC(N2Cc3c(OCc4ccc(CN5CCN(C[C@H]6CC[C@H](n7cc(NC(=O)c8cnn9ccc(N%10CCOCC%10)nc89)c(C(F)F)n7)CC6)CC5)cc4)cccc3C2=O)C1=O (some centres unmarked) [I-322] > 1000 nM

# return DC50 of CC[C@@H]1[C@H](F)C(=O)N[C@@H]1COc1ncc(C#C[C@H]2CC[C@H](CN)CC2)c2cc(C(N)=O)c(OC)cc12 [I-314] (system: IRAK4 (Homo sapiens (Human), UniProt Q9NWZ3)) > 1000 nM

For IRAK4 (Homo sapiens (Human), UniProt Q9NWZ3), give the measured DC50 of the entry O=C1CCC(n2c3ccc(CCCOCCOCCNCC4CCC(n5cc(NC(=O)c6coc(-c7ccnc(NCC8CC8)c7)n6)c(C(F)F)n5)CC4)cc3c3cccnc32)C(=O)N1 (centres unmarked) [I-47] 10 to 100 nM

Please respond with reported DC50 (system IRAK4 (Homo sapiens (Human), UniProt Q9NWZ3)) for CN(Cc1ccc(CCNc2cccc3c2C(=O)N(C2CCC(=O)NC2=O)C3=O)cc1)C[C@H]1CC[C@H](n2cc(NC(=O)c3cnn4ccc(N5CCOCC5)nc34)c(C(F)F)n2)CC1 (some centres unmarked) [I-325] . 10 to 100 nM

Report its DC50 with IRAK4 (Homo sapiens (Human), UniProt Q9NWZ3) as the test system: O=C1CCC(N2C(=O)c3cccc(NCCCOC4CCN(C[C@H]5CC[C@H](n6ncc(NC(=O)c7cnn8ccc(N9C[C@H]%10CC9CO%10)nc78)c6C(=O)O)CC5)CC4)c3C2=O)C(=O)N1 (some centres unmarked) [I-348] > 1000 nM

Provide IRAK4 (Homo sapiens (Human), UniProt Q9NWZ3) DC50 reading for Cn1c(=O)n(C2CCC(=O)NC2=O)c2ccc(CCCOCCOCCOCCOCC(=O)N3CCN([C@H]4CC[C@H](Nc5ncnn6ccc(C7CCOCC7)c56)CC4)CC3)cc21 (some centres unmarked) [I-20] . > 1000 nM

System IRAK4 (Homo sapiens (Human), UniProt Q9NWZ3). Read-out DC50. Item Cn1c(=O)n(C2CCC(=O)NC2=O)c2cccc(CN3CCC(N(C)[C@H]4CC[C@H](Oc5ncnc6ccc(C#N)cc56)CC4)CC3)c21 (some centres unmarked) [I-270] . Report value. > 1000 nM

For IRAK4 (Homo sapiens (Human), UniProt Q9NWZ3), give the measured DC50 of the entry Cc1c[nH]c2ncnc(N[C@H]3CC[C@H](N4CCN(C(=O)COCCOCCOCCOCCCc5cccc6c5n(C)c(=O)n6C5CCC(=O)NC5=O)CC4)CC3)c12 (some centres unmarked) [I-25] > 1000 nM

# assay system IRAK4 (Homo sapiens (Human), UniProt Q9NWZ3): give DC50 of COc1cc(C(=O)N2CCC(CCCN(C)C[C@H]3CC[C@H](n4cc(NC(=O)c5coc(-c6ccnc(NCC7CC7)c6)n5)c(C(F)F)n4)CC3)CC2)ccc1NC(=O)[C@@H]1N[C@@H](CC(C)(C)C)[C@](C#N)(c2ccc(Cl)cc2F)[C@H]1c1cccc(Cl)c1F [I-141] > 1000 nM

GET DC50 | system: IRAK4 (Homo sapiens (Human), UniProt Q9NWZ3) | item: Cn1c(=O)n(C2CCC(=O)NC2=O)c2cccc(CCCOCCOCCOCCOCC(=O)N3CCN([C@H]4CC[C@H](Nc5ncnc6[nH]cc(C7CCOCC7)c56)CC4)CC3)c21 (some centres unmarked) [I-53] 10 to 100 nM

Report measured DC50 on IRAK4 (Homo sapiens (Human), UniProt Q9NWZ3); entry: O=C1CCC(N2C(=O)c3cccc(NCC4CCN(C[C@H]5CC[C@H](n6cc(NC(=O)c7cnn8ccc(N9CCOCC9)nc78)c(C(F)F)n6)CC5)CC4)c3C2=O)C(=O)N1 (some centres unmarked) [I-385] 10 to 100 nM

---

Target: IRAK4 (Homo sapiens (Human))
Assay: IRAK4 MSD degradation in OCI-LY10
Type: cell-based
Details: OCI-LY10, 24 hrs; read-out: IRAK4 MSD degradation in OCI-LY10 at 24 hrs: DC50
REPORTED ENDPOINT: DC50

Read the entry O=C1CCC(N2C(=O)c3cccc(NC[C@H]4CC[C@H](OC5CCN(C[C@H]6CC[C@H](n7cc(NC(=O)c8cnn9ccc(N%10CCOCC%10)nc89)c(C(F)F)n7)CC6)CC5)CC4)c3C2=O)C(=O)N1 (stereo partly drawn) and write its reported DC50. < 10 nM

Give me measured DC50, please, for this compound: CN(Cc1ccc(OCCCNc2cccc3c2C(=O)N(C2CCC(=O)NC2=O)C3=O)nc1)C[C@H]1CC[C@H](n2cc(NC(=O)c3cnn4ccc(N5CCOCC5)nc34)c(C(F)F)n2)CC1 (stereo partly drawn) 10 to 100 nM

Give reported DC50 value for CN(C[C@H]1CC[C@H](n2cc(NC(=O)c3cnn4ccc(NCC5CC5)nc34)c(C(F)F)n2)CC1)[C@H]1CC[C@H](Nc2cccc3c2C(=O)N(C2CCC(=O)NC2=O)C3=O)CC1 (stereo partly drawn) < 10 nM
